B1: tRNA (parent)
chain: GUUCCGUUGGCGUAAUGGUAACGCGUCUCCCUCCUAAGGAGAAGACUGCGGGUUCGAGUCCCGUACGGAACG

Variants of: B1
Assay: yeast fitness relative to wild type (ratio to wild type); higher = fitter; tRNA-Arg(CCU), competitive growth, 37 C, YPD
Fewer inactive variants are shown than the library holds.
Each record here notes measured yeast fitness.

[
  {
    "sequence-chain": "GUUUCAUUGGCGUCAUGGUAACGCGUCUCCCUCCUAAGGAGAAGACUGCGGGUUCGAGUCCCGUUCGGAACG [C4U G6A A14C A65U]",
    "yeast fitness": "≤ 0.5"
  }
]

**Q:** For the variant GUUCCGUUGGCGUAAUGGUAACGCGUCUUCCUCUUAAGGAAAAGACUGCGGGUUCGAGUCCCGUACAGAUCG [C29U C34U G41A G67A A70U] , what yeast fitness is on record?
**A:** ≤ 0.5

**Q:** // query yeast fitness value for entry GUUCCGUUGGCGUAAUGGUAGCGCGUCUCCCUCCUAAGGAGUAGACUGCGGGUUCAAGUCUCGUACGGAACG [A21G A42U G56A C61U]
**A:** ≤ 0.5

**Q:** Entry GUUCCGUUGGCGUAAUGGUAACGUGUCUUCCUCCUAAGGAGAAGACUGCGUGUUCGAGUCCCGUACGGAACG [C24U C29U G51U] : reported yeast fitness = ?
**A:** ≤ 0.5

**Q:** Reported yeast fitness for GUUCGGUUGGCGUAAUGGUAACGCGUCUAUCUCCAAAGGAGAAGACUGCGGGUUGCAGUCCCGUACGGAACG [C5G C29A C30U U35A C55G G56C] : what is it?
**A:** ≤ 0.5

**Q:** Recorded yeast fitness of GUUCCGUUCGGGUAAUGGUUACGCGUCUCCUUCCUAACGAGAAGACUGCGGGUUCGAGUCCCGUACGGAACG [G9C C11G A20U C31U G38C] , please.
**A:** ≤ 0.5
